All figures here come from patent US10399940B2.

Subject Of Test: F508delCFTR (Homo sapiens, UniProt P13569, DEL508-508)
Construct: expressed in transfected cells; host or cells: CFBE41o- (human lung derived epithelial cell line), doxycycline-inducible expression
Sequence (P13569 with tags, fused parts or gaps DEL508-508): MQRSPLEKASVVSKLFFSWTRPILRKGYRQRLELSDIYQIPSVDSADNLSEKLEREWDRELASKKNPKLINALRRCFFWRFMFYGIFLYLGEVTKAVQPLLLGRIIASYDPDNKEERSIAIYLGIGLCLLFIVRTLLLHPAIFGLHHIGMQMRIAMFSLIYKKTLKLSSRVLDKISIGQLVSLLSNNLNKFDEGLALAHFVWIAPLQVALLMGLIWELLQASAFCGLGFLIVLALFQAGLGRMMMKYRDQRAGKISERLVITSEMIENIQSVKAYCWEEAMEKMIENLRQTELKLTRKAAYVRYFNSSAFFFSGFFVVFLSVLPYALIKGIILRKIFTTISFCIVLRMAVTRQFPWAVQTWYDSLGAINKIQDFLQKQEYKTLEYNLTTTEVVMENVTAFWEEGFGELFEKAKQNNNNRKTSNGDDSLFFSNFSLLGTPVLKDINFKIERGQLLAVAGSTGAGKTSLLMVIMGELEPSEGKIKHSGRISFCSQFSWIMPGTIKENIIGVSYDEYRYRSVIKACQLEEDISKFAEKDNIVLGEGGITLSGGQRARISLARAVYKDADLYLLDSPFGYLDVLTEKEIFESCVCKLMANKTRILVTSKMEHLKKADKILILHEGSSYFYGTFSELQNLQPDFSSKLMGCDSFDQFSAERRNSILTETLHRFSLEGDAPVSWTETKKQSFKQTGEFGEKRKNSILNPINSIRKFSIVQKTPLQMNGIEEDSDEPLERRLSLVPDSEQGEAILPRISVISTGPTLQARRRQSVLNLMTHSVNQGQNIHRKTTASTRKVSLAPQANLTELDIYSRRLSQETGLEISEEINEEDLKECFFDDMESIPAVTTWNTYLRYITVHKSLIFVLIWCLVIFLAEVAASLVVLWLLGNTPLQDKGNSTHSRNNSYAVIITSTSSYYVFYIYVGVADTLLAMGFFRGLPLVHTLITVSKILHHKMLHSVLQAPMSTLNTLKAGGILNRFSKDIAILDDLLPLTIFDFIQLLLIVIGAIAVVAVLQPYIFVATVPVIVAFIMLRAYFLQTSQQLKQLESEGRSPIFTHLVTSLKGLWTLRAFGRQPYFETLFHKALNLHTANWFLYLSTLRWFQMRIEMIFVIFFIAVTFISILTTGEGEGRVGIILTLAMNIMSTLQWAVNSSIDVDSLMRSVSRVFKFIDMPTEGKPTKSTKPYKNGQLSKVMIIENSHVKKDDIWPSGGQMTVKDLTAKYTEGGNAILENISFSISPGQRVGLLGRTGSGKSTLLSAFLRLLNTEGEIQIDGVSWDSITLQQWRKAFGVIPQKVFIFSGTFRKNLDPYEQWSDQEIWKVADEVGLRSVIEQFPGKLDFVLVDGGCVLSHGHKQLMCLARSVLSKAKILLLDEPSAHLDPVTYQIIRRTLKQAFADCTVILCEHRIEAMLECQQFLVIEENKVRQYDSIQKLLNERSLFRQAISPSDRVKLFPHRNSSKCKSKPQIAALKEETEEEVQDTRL
Procedure Summary: Cell Surface Expression-Horse Radish Peroxidase (CSE-HRP) assay
Type: cell-based
Assay Context: CFBE41o-F508delCFTR-HRP cells; with co-corrector (2 μM of 3-[(2R,4R)-4-({[1-(2,2-difluoro-1,3-benzodioxol-5-yl)cyclopropyl]carbonyl}amino)-7-methoxy-3,4-dihydro-2H-chromen-2-yl]benzoic acid); read-out: EC50 (with co-corrector)
pEC50: −log10 of the molar value.
Observation Type: pEC50

CCOc1cncc(-c2ccccc2[C@H]2[C@@H](OCc3cc(C(F)(F)F)cnc3OC)[C@H](C(C)(C)C)[C@@H](C(=O)O)N2C(=O)[C@@H]2CCCCO2)c1	5.00 to 6.00

# `COc1ccc(C(C)(C)C)cc1CO[C@H]1[C@H](C(C)(C)C)[C@@H](C(=O)O)N(C(=O)O[C@@H](C)C(F)(F)F)[C@H]1c1cccnc1OC(C)C` with F508delCFTR (Homo sapiens, UniProt P13569, DEL508-508): pEC50 is > 6.00

# `COc1ncc(C(F)(F)F)cc1CO[C@H]1[C@H](C(C)(C)C)[C@@H](C(=O)O)N(C(=O)[C@@H]2CCCO2)[C@H]1c1ccccc1C(F)(F)F` with F508delCFTR (Homo sapiens, UniProt P13569, DEL508-508): pEC50 is > 6.00

# `COc1ncc(C2CCC2)cc1CO[C@H]1[C@H](C(C)(C)C)[C@@H](C(=O)O)N(C(=O)[C@H]2CCCCO2)[C@H]1c1cccnc1OC(C)C` with F508delCFTR (Homo sapiens, UniProt P13569, DEL508-508): pEC50 is > 6.00

* * *

Subject Of Test: F508delCFTR (Homo sapiens, UniProt P13569, DEL508-508)
Construct: expressed in transfected cells; host or cells: CFBE41o- (human lung derived epithelial cell line), doxycycline-inducible expression
Procedure Summary: Cell Surface Expression-Horse Radish Peroxidase (CSE-HRP) assay;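 as to Maximum % activity (with co-corrector): % of on-plate positive control (2 µM of the co-corrector compound) after DMSO subtraction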
Assay type: cell-based
Assay Context: CFBE41o-F508delCFTR-HRP cells; with co-corrector (2 μM); normalized to on-plate positive control; highest concentration 20 μM
Observation Type: Maximum % activity (with co-corrector)

Reference set (5 entries):
COc1ncc(C(F)(F)F)cc1CO[C@H]1[C@H](C(C)(C)C)[C@@H](C(=O)O)N(C(=O)[C@H]2CCCO2)[C@H]1c1ccccc1C(C)C	++ (≥150 and <350)
COc1ncc(C2CCC2)cc1CO[C@H]1[C@H](C(C)(C)C)[C@@H](C(=O)O)N(C(=O)C2CCCCC2)[C@H]1c1cccnc1OC(C)C	+++ (≥350)
COc1ccc(C(F)(F)F)cc1C(CO[C@H]1[C@H](C(C)(C)C)[C@@H](C(=O)O)N(C(=O)[C@@H]2CCCCO2)[C@H]1c1ccccc1C)OC (some centres unmarked)	+++ (≥350)
COc1ncc(C(F)(F)F)cc1CO[C@H]1[C@H](C(C)(C)C)[C@@H](C(=O)O)N(C(=O)[C@@H]2CCCCO2)[C@H]1c1ccccc1-c1ccc(C(F)(F)F)nc1	+++ (≥350)
COc1nc2cc(C)cc(C)c2cc1CO[C@H]1[C@H](C(C)(C)C)[C@@H](C(=O)O)N(C(=O)OC(C)C)[C@H]1c1cccnc1OC(C)C	+++ (≥350)

// Maximum % activity (with co-corrector) lookup, compound = `COc1ncc(C(C)(C)C)cc1CO[C@H]1[C@H](C(C)(C)C)[C@@H](C(=O)O)N(C(=O)OC(C)C)[C@H]1c1ccccc1F` , result: +++ (≥350)

// Maximum % activity (with co-corrector) lookup, compound = `COc1ccc(-c2ccccc2[C@H]2[C@@H](OCc3cc(C(F)(F)F)cnc3OC)[C@H](C(C)(C)C)[C@@H](C(=O)O)N2C(=O)[C@@H]2CCCCO2)cn1` , result: +++ (≥350)

// Maximum % activity (with co-corrector) lookup, compound = `COc1ncc(C(F)(F)F)cc1CO[C@H]1[C@H](C(C)(C)C)[C@@H](C(=O)O)N(C(=O)[C@@H]2CCCO2)[C@H]1c1cccc(C2CC2)c1` , result: ++ (≥150 and <350)

// Maximum % activity (with co-corrector) lookup, compound = COc1ncc(C(F)(F)F)cc1CO[C@H]1[C@H](C(C)(C)C)[C@@H](C(=O)O)N(C(=O)[C@@H]2CCCC[C@H]2C(F)(F)F)[C@H]1c1cccnc1OC(C)C (single isomer, unassigned) , result: +++ (≥350)

// Maximum % activity (with co-corrector) lookup, compound = `COc1ncc(C(F)(F)F)cc1CO[C@H]1[C@H](C(C)(C)C)[C@@H](C(=O)O)N(C(=O)C2CCCCC2)[C@H]1c1ccccc1F` , result: +++ (≥350)

// Maximum % activity (with co-corrector) lookup, compound = `CCc1ccccc1[C@H]1[C@@H](OCc2cc3cccc(C(F)(F)F)c3o2)[C@H](C(C)(C)C)[C@@H](C(=O)O)N1C(=O)[C@@H]1CCCCO1` , result: +++ (≥350)

// Maximum % activity (with co-corrector) lookup, compound = `COc1ncc(C(F)(F)F)cc1CO[C@H]1[C@H](C(C)(C)OC)[C@@H](C(=O)O)N(C(=O)OC(C)C)[C@H]1c1ccccc1C(C)C` , result: +++ (≥350)

// Maximum % activity (with co-corrector) lookup, compound = CN(C)c1ncc(C(F)(F)F)cc1CO[C@@H]1[C@@H](C(C)(C)C)[C@H](C(=O)O)N(C(=O)C2CCCCC2)[C@@H]1c1ccccc1 (racemic) , result: +++ (≥350)

// Maximum % activity (with co-corrector) lookup, compound = `COc1ncc(-c2ccccc2F)cc1CO[C@H]1[C@H](C(C)(C)C)[C@@H](C(=O)O)N(C(=O)OC(C)C)[C@H]1c1ccccc1` , result: +++ (≥350)

// Maximum % activity (with co-corrector) lookup, compound = `COc1ncc(C(F)(F)F)cc1CO[C@H]1[C@H](C(C)(C)C)[C@@H](C(=O)O)N(C(=O)[C@H]2CCCCO2)[C@H]1c1ccccc1C(C)C` , result: +++ (≥350)

// Maximum % activity (with co-corrector) lookup, compound = COc1ccc(C(F)(F)F)cc1C(O)CO[C@H]1[C@H](C(C)(C)C)[C@@H](C(=O)O)N(C(=O)[C@@H]2CCCCO2)[C@H]1c1ccccc1C (some centres unmarked) , result: +++ (≥350)

// Maximum % activity (with co-corrector) lookup, compound = `COc1ccccc1[C@H]1[C@@H](OCc2cc(C3CCC3)cnc2OC)[C@H](C(C)(C)C)[C@@H](C(=O)O)N1C(=O)[C@@H]1CCCCO1` , result: +++ (≥350)

// Maximum % activity (with co-corrector) lookup, compound = `COc1ncc(N2CCCC2)cc1CO[C@H]1[C@H](C(C)(C)C)[C@@H](C(=O)O)N(C(=O)C2CCCCC2)[C@H]1c1ccccc1F` , result: ++ (≥150 and <350)

// Maximum % activity (with co-corrector) lookup, compound = `COc1nc2cc(C)cc(C)c2cc1CO[C@H]1[C@H](C(C)(C)C)[C@@H](C(=O)O)N(C(=O)C2CCCCC2)[C@H]1c1cccnc1OC(C)C` , result: +++ (≥350)

// Maximum % activity (with co-corrector) lookup, compound = `COc1ncc(C2CCC2)cc1CO[C@H]1[C@H](C(C)(C)C)[C@@H](C(=O)O)N(C(=O)[C@H]2CCCCO2)[C@H]1c1cccnc1OC(C)C` , result: +++ (≥350)

// Maximum % activity (with co-corrector) lookup, compound = `COc1ncc(C(F)(F)F)cc1CO[C@H]1[C@H](C(C)(C)C)[C@@H](C(=O)O)N(C(=O)[C@@H]2CCCCO2)[C@H]1c1ccccc1C(C)C` , result: +++ (≥350)

// Maximum % activity (with co-corrector) lookup, compound = `COc1nc2ccccc2cc1CO[C@H]1[C@H](C(C)(C)C)[C@@H](C(=O)O)N(C(=O)OC(C)C)[C@H]1c1ccccc1` , result: ++ (≥150 and <350)
